These data points were gathered from PubChem BioAssay.

# assay remarks: modulators of CIT2-GFP expression in yeast, confirmation, S. cerevisiae, GFP fusion, cherry picks, mother/daughter gates (AID 2274)
# condition set: S. cerevisiae CIT2-GFP strain, flow cytometry, 3 h; at 10 µM; stronger effect = higher value

{"columns": ["compound", "GFP response, % of DMSO (%)"],
 "data": [
  ["COc1ccc(OC(=O)c2cccc(S(=O)(=O)N3CCCC3)c2)cc1", 103],
  ["Cc1cc(C)c2sc(NC(=O)C3=COCCO3)nc2c1", 102],
  ["CCc1ccccc1OCc1nnc(N)s1", 100],
  ["CCOc1ccccc1N1C(=O)CC(Sc2ncccc2C(=O)O)C1=O (stereo unspecified)", 103],
  ["COc1cc(NC(=O)c2ccc(F)cc2)ccc1NC(=O)c1cc2ccccc2o1", 94.7],
  ["CCOC(=O)CCS(=O)(=O)c1nc(-c2ccccc2)cc(C(F)(F)F)n1", 100],
  ["O=C(NNC(=S)NC(=O)c1ccco1)c1ccc(F)cc1", 107],
  ["O=S(=O)(Nc1ccc(Br)cc1)c1cccc2nonc12", 97.8],
  ["CCCn1c(=O)c(C(=O)NCc2ccc(OC)c(OC)c2)c(O)c2ccccc21", 101],
  ["COCCNC(=O)/C(C#N)=C/c1c(N2CC(C)OC(C)C2)nc2ccccn2c1=O (stereo unspecified)", 102],
  ["Cc1nnc(NC(=O)c2ccc(S(=O)(=O)N(C)Cc3ccccc3)cc2)o1", 103]
]}

* * *

# assay remarks: RPL19A-GFP modulators, yeast TOR pathway, confirmation, cell-based, S. cerevisiae, flow cytometry, cherry picks, mother/daughter gates (AID 2270)
# condition set: S. cerevisiae RPL19A-GFP strain, 3 h, measured here: daughter cell gate, at 10 µM, stronger effect = lower value, 100 = same GFP as DMSO wells
Listed here: items and their measured GFP response vs DMSO.

{"columns": ["molecule", "measure unit", "GFP response vs DMSO"],
 "data": [
  ["CCN(CC)CCCN(Cc1cc2cc3c(cc2[nH]c1=O)OCO3)C(=S)Nc1ccccc1", "%", 74.2],
  ["O=C(O)c1ccccc1SC1CC(=O)N(c2ccc3c(c2)OCO3)C1=O (stereo unspecified)", "%", 102],
  ["O=C1CC(Sc2nnc(-c3ccccc3)o2)C(=O)N1c1ccccc1 (stereo unspecified)", "%", 98.7],
  ["Cc1cc(OCc2ccc(C(=O)NN=C3CCCC3)cc2)ccc1Cl", "%", 98.7],
  ["Cc1ccc(S(=O)(=O)N(Cc2ccccc2)Cc2ccco2)cc1", "%", 103],
  ["COc1cc(NC(=O)c2ccc(F)cc2)ccc1NC(=O)c1cc2ccccc2o1", "%", 99.1],
  ["O=C(O)c1ccc(/C=N/NC(=O)c2ccc(Br)cc2)cc1", "%", 100],
  ["COc1ccc2c(/C=C/c3cc[n+](C)cc3)c[nH]c2c1", "%", 106],
  ["S=C(Nc1ccc(Cl)cc1)Nc1ccc2cn[nH]c2c1", "%", 96.3],
  ["Cc1ccc(C(=O)OCC(=O)Nc2ccccc2Sc2ccccc2)cc1C", "%", 97.8],
  ["O=C(CS(=O)c1ccccc1[N+](=O)[O-])Oc1ccc(Br)cc1 (stereo unspecified)", "%", 105]
]}

* * *

# assay remarks: RPL19A-GFP modulators, yeast TOR pathway, confirmation, cell-based, S. cerevisiae, flow cytometry, cherry picks, mother/daughter gates (AID 2270)
# condition set: S. cerevisiae RPL19A-GFP strain, 3 h, measured here: mother cell gate, at 10 µM, stronger effect = lower value, 100 = same GFP as DMSO wells
Listed here: items and their measured GFP response vs DMSO.

{"columns": ["compound", "GFP response vs DMSO / %"],
 "data": [
  ["O=C1c2ccccc2C(=O)C2OC12 (stereo not given)", 88.1],
  ["COc1ccc(C2CC(=O)C(C(c3ccc(O)cc3)C3C(=O)CC(c4ccc(OC)cc4)CC3=O)C(=O)C2)cc1 (stereo not given)", 101],
  ["N=C1/C(=C\\c2ccc(Br)o2)C(=O)N=C2SC(CC(=O)N3CCCCC3)=NN12", 95.5],
  ["CCn1cc(/C=C/c2cc[n+](C)cc2)c2ccccc21", 107],
  ["COc1ccc(-c2noc(CCCC(=O)NCCc3ccccc3)n2)cc1OC", 97.3]
]}

* * *

Listed here: items and their measured GFP response vs DMSO.
# assay remarks: RPL19A-GFP modulators, yeast TOR pathway, confirmation, cell-based, S. cerevisiae, flow cytometry, cherry picks, mother/daughter gates (AID 2270)
# condition set: S. cerevisiae RPL19A-GFP strain, 3 h, measured here: mother cell gate, at 10 µM, stronger effect = lower value, 100 = same GFP as DMSO wells

{"columns": ["compound", "measure unit", "GFP response vs DMSO"],
 "data": [
  ["CS(=O)(=O)N1N=C(c2ccc3nccnc3c2)CC1c1ccccc1 (stereo not given)", "%", 98.2],
  ["O=C1CC(SCc2nc3ccccc3[nH]2)C(=O)N1c1cccc(F)c1 (stereo not given)", "%", 97.5],
  ["Cc1cc(Cl)ccc1N1C(=O)CC(SCCC(=O)O)C1=O (stereo not given)", "%", 95.3],
  ["O=C(Nc1cccc(C(F)(F)F)c1)Oc1ccc(Cl)c2cccnc12", "%", 98.2],
  ["CCOc1ccc(N2C(=O)CC(SCCN)C2=O)cc1 (stereo not given)", "%", 96.6],
  ["O=S(=O)(/N=C(/Nc1ccc(F)cc1F)c1ccc(Cl)cc1)c1ccccc1", "%", 103],
  ["Cc1ccc(-c2ccc(/C=N/NC(N)=S)o2)cc1", "%", 98.7],
  ["O=C(COc1ccccc1[N+](=O)[O-])Nc1ccc(NC(=O)c2cc3ccccc3o2)cc1", "%", 99.3],
  ["COc1ccc(C(=O)/C=C2/C(=O)Nc3ccccc32)c(OC)c1", "%", 95.2],
  ["O=C(O)CSc1nnc(-c2ccncc2)n1CCc1ccccc1", "%", 100],
  ["COc1ccc(C(=O)ON=C2CCN(c3ccc([N+](=O)[O-])cc3)CC2)cc1", "%", 97.6],
  ["CC1=NOC(=O)/C1=C\\c1ccc(-c2cc(Cl)ccc2Cl)o1", "%", 91.6],
  ["CC1=CCC(C(=O)O)C(C(=O)Nc2ccc(-c3nc4ccc(C)cc4s3)cc2)C1 (stereo not given)", "%", 100],
  ["COc1ccccc1C(=O)NNC(=O)C(=O)Nc1cccc(Cl)c1C", "%", 101],
  ["O=C(COC(=O)c1ccc(NS(=O)(=O)c2cccs2)cc1O)Nc1nc2ccccc2s1", "%", 101],
  ["CC(C)NC(=O)c1ccccc1-c1nc(-c2ccccc2Cl)no1", "%", 98],
  ["CC(=O)c1ccccc1NCC(=O)Nc1ccc(C)cc1", "%", 96],
  ["O=C(Oc1ccnc2cc(Cl)ccc12)N1CCCCCC1", "%", 95],
  ["CCCN1CCN(C(=O)c2oc3ccccc3c2NC(=O)COc2ccc(OC)cc2)CC1", "%", 99.8],
  ["COc1ccccc1N1CCN(C2CCCN(Cc3cc(F)cc(F)c3)C2)CC1 (stereo not given)", "%", 95.9],
  ["c1cnc2c(SCc3ccc(-c4nnco4)cc3)cccc2c1", "%", 97.5],
  ["CCCCN(CCCC)S(=O)(=O)c1ccc(C(=O)Nc2nnc(COC)o2)cc1", "%", 103],
  ["COc1ccc(N2C(=O)CC(Sc3nccc(C)n3)C2=O)cc1 (stereo not given)", "%", 96.5],
  ["N#C/C(=C\\c1c(N2CCCCC2)nc2ccccn2c1=O)C(=O)NCc1ccco1", "%", 99.5],
  ["COc1cccc(C(=O)/C=C/c2ccc(SC)cc2)c1", "%", 98.5],
  ["COc1ccc(CN2CCN(c3ncccn3)CC2)c(C)c1C", "%", 95.2],
  ["CCOc1cc(/C=N/Nc2nc(C)cc(=O)[nH]2)ccc1O", "%", 100],
  ["O=C(Nc1ccccc1C(=O)O)c1ccccc1", "%", 101],
  ["CCOC(=O)CSC1=NC(=O)/C(=C/c2ccc(Br)cc2)S1", "%", 92.8],
  ["Cc1c(NC(=O)Nc2ccc3c(c2)OCO3)c(=O)n(-c2ccccc2)n1C", "%", 99],
  ["CCN(CC)c1ccc2cc(-c3nc4ccccc4[nH]3)c(=O)oc2c1", "%", 111],
  ["Cc1nn2c(NCCCN3CCOCC3)c3c(nc2c1-c1ccccc1)CCC3", "%", 101],
  ["O=C(NNC(=S)NC(=O)c1ccco1)c1ccc(F)cc1", "%", 105],
  ["COc1cc(-c2noc(-c3cccc(Cl)c3)n2)cc(OC)c1OC", "%", 95.8],
  ["C=CCOc1ccc(C(=O)n2cc(C(=O)OC)c3ccccc32)cc1", "%", 96.4],
  ["Cc1cccc2nc(-c3cccnc3)c(NCCC(C)C)n12", "%", 99.6],
  ["CCOC(=O)c1csc(Nc2nc3ccc(F)cc3s2)n1", "%", 94.2],
  ["CC(C)c1nnc(NC(=O)c2nc(S(=O)(=O)Cc3ccccc3F)ncc2Cl)s1", "%", 99.2],
  ["CC(Oc1ccc(Br)cc1)C(=O)Nc1nc(-c2ccccn2)cs1 (stereo not given)", "%", 105],
  ["COc1cc(/C=C2/N=C(c3ccccc3)OC2=O)c(F)cc1OCc1ccccc1", "%", 98],
  ["Cc1ccsc1/C=N/Nc1ncc(Cl)cc1Cl", "%", 85.8],
  ["COC(=O)c1ccc(NC(=O)c2nc(S(=O)(=O)Cc3cccc(C)c3)ncc2Cl)cc1", "%", 98.7],
  ["CCOC(=O)c1ccc(N=Cc2nc(-c3ccccc3)oc2OC(C)=O)cc1", "%", 101],
  ["CC(=O)Oc1oc(-c2ccccc2)nc1C=Nc1ccc(N(C)C)cc1", "%", 99.2],
  ["O=C(O)c1ccn2c(C(=O)c3ccc(Cl)cc3)c(-c3ccccc3)cc2c1", "%", 99.8]
]}
